Tested on: HCT-116
Assay: Antiproliferative activity against human HCT116 cells at 1 uM after 72 hrs by fluorescence method
Type: functional
Conditions: HCT-116, 72 h, read-out: GI

- compound: "CC[C@H]1c2ccccc2-c2c([nH]c3ccccc23)C(=O)N1C"
  inhibition of growth at 1 µM: "91%"
- compound: "CC[C@@H]1NC(=O)c2[nH]c3ccccc3c2-c2ccccc21"
  inhibition of growth at 1 µM: "85%"
- compound: "O=C1c2[nH]c3ccccc3c2-c2ccccc2C2CCCN12 (centres undefined)"
  inhibition of growth at 1 µM: "64%"
- compound: "O=C1NC2CCc3cccc(c32)-c2c1[nH]c1ccccc21 (centres undefined)"
  inhibition of growth at 1 µM: "64%"

FYI, the data here is from ChEMBL document CHEMBL2010708.
